// reported growth inhibition for each item listed
test_protocol: NCI Yeast Anticancer Drug Screen. Data for the wt1 strain (AID 149);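 note: 0% = growth of vehicle-treated wt1 cultures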
experimental_parameters: S. cerevisiae wt1 strain (SPY 50644) growth inhibition; at 11.0 µM; active compounds read high
The panel holds about 79,000 compounds, 15% with a hit somewhere; the sample as a whole holds those more often.
State the answer as a number, implicitly in %.

Example cases with answers are listed next.
1) O=[N+]([O-])/C=C/c1cc2ccc3ccccc3c2[nH]1; 41
2) NC(N)=NS(=O)(=O)c1ccc(Nc2c3ccccc3nc3c(C(=O)NC(CO)(CO)CO)cccc23)cc1; 0
3) COC(=O)c1cnc(Cl)c([N+](=O)[O-])c1; 82
4) CC(=O)/C=C/c1cccc([N+](=O)[O-])c1; 8
5) COc1ccc2cc3c4cc5c(cc4cc[n+]3cc2c1OC)OCO5; 50

Let's switch to this compound now.
Reported growth inhibition for CC(C)(CN1CCCCC1)C(=O)CC(SCCS(=O)(=O)O)c1ccccc1 (stereo unspecified) was 0

---

test_protocol: NCI Yeast Anticancer Drug Screen. Data for the rad50 strain (AID 155);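 note: 0% = growth of vehicle-only cultures of the same strain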
experimental_parameters: S. cerevisiae rad50 strain growth inhibition; at 33.0 µM; active compounds read high
About 79,000 compounds went through this panel and 15% of them were active in at least one assay; those are over-represented in the sample as a whole.
Kind request: treat 80% as inclusive, so growth inhibition at 80% or higher is Satisfied, anything lower is Not satisfied.

Look over these answered cases.
1) CS(=O)(=O)O.[Ag]; Satisfied
2) CC(C)N(CCCNc1c2ccccc2nc2cccc([N+](=O)[O-])c12)C(C)C; Satisfied

Prompt: Can "O=[N+]([O-])c1ccc(S(=O)(=O)Cc2ccccc2)c([N+](=O)[O-])c1" be said to have growth inhibition at or above 80%?
Response: Satisfied

Prompt: Can "O=C1c2ccccc2-c2cc3ccccc3c(=O)n21" be said to have growth inhibition at or above 80%?
Response: Satisfied

Prompt: Can "CC(=O)CCC1=C(C)C(=O)C(=O)C(C)=C1O" be said to have growth inhibition at or above 80%?
Response: Not satisfied

Prompt: Can "N#C/C(=C\NC(=S)Nc1ccc(S(N)(=O)=O)cc1)C(=O)c1ccc2ccccc2c1" be said to have growth inhibition at or above 80%?
Response: Not satisfied

Prompt: Can Cc1cccc(C)c1NC(=O)CCC(=O)C(C)C(=O)c1ccc(O)cc1 (stereo unspecified) be said to have growth inhibition at or above 80%?
Response: Not satisfied

---

test_protocol: NCI Yeast Anticancer Drug Screen. Data for the mlh1 strain (AID 171);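 note: 0% = growth of vehicle-treated control cultures of the same strain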
experimental_parameters: S. cerevisiae mlh1 strain growth inhibition; at 1.2 µM; active compounds read high
About 79,000 compounds went through this panel and 15% of them were active in at least one assay; those are over-represented in the sample as a whole.
property_label: growth inhibition (%)
State the answer as a number, implicitly in %.

Example cases with answers are listed next.
1. CNC(=O)OCc1c(COC(=O)NC)c(C)n(-c2ccc(Br)cc2)c1C; -26
2. O=C1c2ccccc2-c2ccc(N=Cc3ccccc3)cc21; -2
3. OC(c1ccccc1)(c1ccccc1)c1nccc2ccccc12; -2
4. O=S(=O)(NC1CCCC(c2ccccc2)C1)c1ccccc1 (stereo unspecified); -2
5. O=C1CSC(c2ccccc2)N1c1ccc(-c2ccc(-n3c(-c4ccccc4)nc4ccccc4c3=O)cc2)cc1 (stereo unspecified); -1

Reported growth inhibition for Cc1cccc(C)c1NC(=O)CCC(=O)C(C)C(=O)c1ccc(O)cc1 (stereo unspecified) was -2

Reported growth inhibition for "CNCC(C)CNC" was 12

Reported growth inhibition for "O=C(/C=C/c1ccsc1)c1cccs1" was 6

Reported growth inhibition for CC1CN(/N=C\c2ccc([N+](=O)[O-])o2)C(=O)O1 (stereo unspecified) was 0

Reported growth inhibition for "Nc1ccc(S(=O)(=O)Nc2nc3c(c(=O)[nH]2)CCCC3)cc1" was 8

Reported growth inhibition for "NCCOc1ccc(/C(=C(/Cl)c2ccccc2)c2ccccc2)cc1" was 18
